Some molecules, each annotated with its measured melting point.

molecule: Cn1c(-c2ccc(-n3ccnc3)cc2)cnc1[C@H](Cc1ccccn1)N(C=O)c1cc2cccc(Cl)c2o1
melting point: 182 to 184 °C

molecule: Cn1c(-c2ccc(-c3ccco3)cc2)cnc1[C@H](Cc1ccccn1)N(C=O)c1cc2cc(Cl)ccc2o1
melting point: 144 to 146 °C

molecule: Cn1c(-c2ccc(-c3cncs3)cc2)cnc1[C@H](Cc1ccccn1)N(C=O)c1cc2cc(Cl)ccc2o1
melting point: 165 to 167 °C

molecule: Cn1c(-c2ccc(-c3nccs3)cc2)cnc1[C@H](Cc1ccccn1)N(C=O)c1cc2cc(Cl)ccc2o1
melting point: 144 to 146 °C

molecule: CCCn1c(-c2ccc(-n3ccnc3)cc2)cnc1[C@H](Cc1ccncc1)n1c(NC=O)cc2ccccc21
melting point: 238 to 240 °C (dec.)

molecule: Cn1c(-c2ccc(-n3cnc4ccccc43)cc2)cnc1[C@H](Cc1ccccn1)N(C=O)c1cc2ccccc2[nH]1
melting point: 233 to 237 °C

molecule: Cn1c(-c2ccc(-n3ccnc3)cc2)cnc1[C@H](Cc1ccccn1)N(C=O)c1cc2cc(Cl)ccc2o1
melting point: 63 to 73 °C

molecule: Cn1c(-c2cccs2)cnc1[C@H](Cc1ccccn1)N(C=O)c1cc2cc(Cl)ccc2o1
melting point: 70 to 74 °C

molecule: Cn1c(-c2ccc(N3CCOCC3)c(F)c2)cnc1[C@H](Cc1ccccn1)N(C=O)c1cc2cc(Cl)ccc2o1
melting point: 134 to 135 °C

molecule: Cn1c(-c2ccc([N+](=O)[O-])cc2)cnc1[C@H](Cc1ccccn1)N(C=O)c1cc2cc(C(F)(F)F)ccc2o1
melting point: 192 to 194 °C

molecule: Cn1c(-c2ccc(N3CCOCC3)cc2)cnc1[C@H](Cc1ccccn1)N(C=O)c1cc2cc(F)ccc2o1
melting point: 130 to 132 °C

molecule: CCn1c(-c2ccc(-n3ccnc3)cc2)cnc1[C@H](Cc1ccccn1)N(C=O)c1cc2cc(Cl)ccc2o1.Cl.Cl.Cl
melting point: 198 to 203 °C

molecule: Cn1c(-c2ccc(-n3ccnc3)cc2)cnc1[C@H](Cc1ccccn1)N(C=O)c1cc2cc(F)ccc2o1
melting point: 180 to 182 °C

molecule: Cn1c(-c2ccc([N+](=O)[O-])cc2)cnc1[C@H](Cc1ccccn1)N(C=O)c1cc2cc(Cl)ccc2o1
melting point: 199 to 201 °C

molecule: Cn1c(-c2ccc(N3CCOCC3)cc2)cnc1[C@H](Cc1ccccn1)N(C=O)c1cc2cc(Br)ccc2o1
melting point: 173 to 174 °C

molecule: Cn1c(-c2ccc(-c3ccccc3)cc2)cnc1[C@H](Cc1ccccn1)N(C=O)c1cc2cc(Br)ccc2o1
melting point: 180.5 to 181.5 °C

molecule: Cn1c(-c2ccc(-n3cnc4ccccc43)cc2)cnc1[C@H](Cc1ccccn1)N(C=O)c1cc2ccccc2o1
melting point: 152 to 155 °C

molecule: Cn1ccnc1-c1ccc(-c2cnc([C@H](Cc3ccccn3)N(C=O)c3cc4ccccc4[nH]3)n2C)cc1
melting point: 218 to 222 °C

molecule: Cn1c(-c2ccc(-c3ccncc3)cc2)cnc1[C@H](Cc1ccccn1)N(C=O)c1cc2cc(Cl)ccc2o1
melting point: 135 to 140 °C

molecule: COc1ccc2oc(N(C=O)[C@@H](Cc3ccccn3)c3ncc(-c4ccc(N5CCOCC5)cc4)n3C)cc2c1
melting point: 122 to 124 °C

molecule: CCn1c(-c2ccc(-n3ccnc3)cc2)cnc1[C@H](Cc1ccncc1)N(C=O)c1cc2ccccc2[nH]1 [Compound (e)]
melting point: 255 to 260 °C (dec.)

molecule: CCCn1c(-c2ccc(-n3ccnc3)cc2)cnc1[C@H](Cc1ccccn1)N(C=O)c1cc2cc(C(F)(F)F)ccc2o1
melting point: 92 to 98 °C

molecule: Cn1c(-c2ccc(-c3cccs3)cc2)cnc1[C@H](Cc1ccccn1)N(C=O)c1cc2cc(Cl)ccc2o1
melting point: 110 to 114 °C

molecule: CCn1c(-c2ccc(-n3ccnc3)cc2)cnc1[C@H](Cc1ccccn1)N(C=O)c1cc2cc(C(F)(F)F)ccc2o1
melting point: 85 to 89 °C

molecule: CCCn1c(-c2ccc(-n3ccnc3)cc2)cnc1[C@H](Cc1ccccn1)N(C=O)c1cc2cc(Br)ccc2o1
melting point: 93 to 99 °C

molecule: Cn1c(-c2ccc([N+](=O)[O-])cc2)cnc1[C@H](Cc1ccccn1)N(C=O)c1cc2cc(F)ccc2o1
melting point: 207 to 208 °C

molecule: Cc1nc([C@H](Cc2ccccn2)N(C=O)c2cc3ccccc3[nH]2)n(C)c1-c1ccc(-n2ccnc2)cc1
melting point: 156 to 157 °C

molecule: COc1ccc2oc(N(C=O)[C@@H](Cc3ccccn3)c3ncc(-c4ccc([N+](=O)[O-])cc4)n3C)cc2c1
melting point: 210 to 211 °C
